Biological target: FER (Homo sapiens, UniProt P16591)
Sequence (P16591 whole entry): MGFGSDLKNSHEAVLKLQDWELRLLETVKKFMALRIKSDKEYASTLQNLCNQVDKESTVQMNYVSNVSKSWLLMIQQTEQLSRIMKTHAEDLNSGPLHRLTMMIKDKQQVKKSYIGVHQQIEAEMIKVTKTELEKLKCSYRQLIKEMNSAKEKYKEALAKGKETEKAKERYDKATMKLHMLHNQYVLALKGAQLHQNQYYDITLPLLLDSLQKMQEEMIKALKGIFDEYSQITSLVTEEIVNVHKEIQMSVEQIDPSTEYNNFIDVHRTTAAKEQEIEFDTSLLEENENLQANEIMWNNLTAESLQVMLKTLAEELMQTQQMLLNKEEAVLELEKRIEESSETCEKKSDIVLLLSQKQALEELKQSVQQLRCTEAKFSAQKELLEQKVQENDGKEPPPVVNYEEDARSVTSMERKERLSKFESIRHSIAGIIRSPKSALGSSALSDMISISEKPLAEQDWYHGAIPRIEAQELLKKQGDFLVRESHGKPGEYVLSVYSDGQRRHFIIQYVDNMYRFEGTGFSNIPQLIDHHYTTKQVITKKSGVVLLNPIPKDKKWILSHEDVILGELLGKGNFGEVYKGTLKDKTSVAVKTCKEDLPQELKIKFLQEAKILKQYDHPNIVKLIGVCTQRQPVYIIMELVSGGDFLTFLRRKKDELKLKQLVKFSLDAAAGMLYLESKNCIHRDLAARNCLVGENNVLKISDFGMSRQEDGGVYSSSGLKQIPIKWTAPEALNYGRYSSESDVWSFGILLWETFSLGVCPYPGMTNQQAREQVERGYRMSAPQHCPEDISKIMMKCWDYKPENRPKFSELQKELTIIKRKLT
pIC50: −log10 of the molar value.
TEST_READOUT: pIC50

## Input Short answer please: pIC50, FER (Homo sapiens, UniProt P16591), entry "CCS(=O)(=O)Cc1cnc(Oc2c(F)cc(F)cc2OCCCCOc2ccc(/C=C/c3cc(OC)cc(OC)c3)cc2)c(-c2cc(C)c3c(=O)[nH]ccn23)c1"
## Output < 5.00

###

Biological target: MET (Homo sapiens, UniProt P08581)
Sequence (P08581 25-1390): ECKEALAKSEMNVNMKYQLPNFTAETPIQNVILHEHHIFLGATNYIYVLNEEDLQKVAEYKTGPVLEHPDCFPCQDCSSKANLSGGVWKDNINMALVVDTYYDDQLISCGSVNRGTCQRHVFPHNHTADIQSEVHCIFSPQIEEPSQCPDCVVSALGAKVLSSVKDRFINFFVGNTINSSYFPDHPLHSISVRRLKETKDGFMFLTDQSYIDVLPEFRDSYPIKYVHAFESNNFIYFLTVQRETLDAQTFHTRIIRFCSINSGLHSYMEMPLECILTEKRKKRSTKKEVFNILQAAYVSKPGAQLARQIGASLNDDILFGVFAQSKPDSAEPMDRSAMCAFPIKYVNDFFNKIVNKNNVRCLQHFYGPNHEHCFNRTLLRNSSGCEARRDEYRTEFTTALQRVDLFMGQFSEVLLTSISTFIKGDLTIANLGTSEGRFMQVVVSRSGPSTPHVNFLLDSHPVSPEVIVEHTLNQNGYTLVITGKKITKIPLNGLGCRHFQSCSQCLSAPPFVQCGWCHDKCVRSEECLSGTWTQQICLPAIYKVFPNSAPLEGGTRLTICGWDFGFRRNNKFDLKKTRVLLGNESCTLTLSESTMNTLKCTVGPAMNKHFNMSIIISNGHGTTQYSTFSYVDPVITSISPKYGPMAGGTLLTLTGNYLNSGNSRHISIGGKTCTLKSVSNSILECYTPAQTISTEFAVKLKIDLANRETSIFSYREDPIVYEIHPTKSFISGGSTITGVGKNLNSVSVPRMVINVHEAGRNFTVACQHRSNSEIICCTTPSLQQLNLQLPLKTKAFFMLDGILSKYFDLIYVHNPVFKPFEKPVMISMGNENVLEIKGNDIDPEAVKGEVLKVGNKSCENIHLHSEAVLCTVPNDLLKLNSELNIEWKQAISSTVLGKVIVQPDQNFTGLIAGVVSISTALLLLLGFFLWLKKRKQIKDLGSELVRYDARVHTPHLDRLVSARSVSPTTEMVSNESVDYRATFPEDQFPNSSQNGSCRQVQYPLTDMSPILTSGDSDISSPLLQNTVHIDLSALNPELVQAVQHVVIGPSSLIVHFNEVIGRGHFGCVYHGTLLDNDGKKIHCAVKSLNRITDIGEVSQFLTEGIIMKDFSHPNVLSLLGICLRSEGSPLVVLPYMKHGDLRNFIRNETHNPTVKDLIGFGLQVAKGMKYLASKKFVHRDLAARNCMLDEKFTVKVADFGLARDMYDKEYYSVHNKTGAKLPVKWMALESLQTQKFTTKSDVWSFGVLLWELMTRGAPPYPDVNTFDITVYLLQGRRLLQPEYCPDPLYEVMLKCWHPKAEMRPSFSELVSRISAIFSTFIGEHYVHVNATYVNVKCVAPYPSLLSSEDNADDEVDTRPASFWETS
pIC50: −log10 of the molar value.
TEST_READOUT: pIC50

## Input Lab note: need pIC50 with MET (Homo sapiens, UniProt P08581) for entry CCS(=O)(=O)Cc1cnc(Oc2c(F)cc(F)cc2OCCCCOc2ccc(/C=C/c3cc(OC)cc(OC)c3)cc2)c(-c2cc(C)c3c(=O)[nH]ccn23)c1 [BST-4] , please look it up.
## Output < 5.00
